- System Name: UniProt:P08912
- Sequence (P08912 whole entry): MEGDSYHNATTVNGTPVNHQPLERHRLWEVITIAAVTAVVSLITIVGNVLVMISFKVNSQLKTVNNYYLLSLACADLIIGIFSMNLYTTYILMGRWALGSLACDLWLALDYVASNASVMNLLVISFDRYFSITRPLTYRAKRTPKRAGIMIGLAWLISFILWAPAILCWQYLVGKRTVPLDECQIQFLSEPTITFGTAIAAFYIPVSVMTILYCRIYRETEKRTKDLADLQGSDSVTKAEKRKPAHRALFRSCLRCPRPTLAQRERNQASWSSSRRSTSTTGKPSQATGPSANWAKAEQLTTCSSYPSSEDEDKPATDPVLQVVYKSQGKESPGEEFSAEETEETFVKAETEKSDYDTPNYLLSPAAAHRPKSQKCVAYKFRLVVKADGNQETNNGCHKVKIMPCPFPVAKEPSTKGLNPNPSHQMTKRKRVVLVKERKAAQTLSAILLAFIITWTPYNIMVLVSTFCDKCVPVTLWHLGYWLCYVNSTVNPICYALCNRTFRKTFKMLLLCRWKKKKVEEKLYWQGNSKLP
- Method Notes: The compound was tested for the binding affinity against Muscarinic acetylcholine receptor M5
Reported Metric: pKi
Lab note — pKi values are minus log10 of concentrations in M.

Problem: State the recorded pKi for this entry: COc1ccc([S@@+]([O-])c2ccc(C(C#N)N3CCN(C4CCCCC4)CC3)cc2)cc1 (stereo partly specified)
Solution: 6.51

----------
Muscarinic acetylcholine receptor M3 (Homo sapiens, UniProt P20309): reported pKi for various molecules.
Sequence (P20309 whole entry): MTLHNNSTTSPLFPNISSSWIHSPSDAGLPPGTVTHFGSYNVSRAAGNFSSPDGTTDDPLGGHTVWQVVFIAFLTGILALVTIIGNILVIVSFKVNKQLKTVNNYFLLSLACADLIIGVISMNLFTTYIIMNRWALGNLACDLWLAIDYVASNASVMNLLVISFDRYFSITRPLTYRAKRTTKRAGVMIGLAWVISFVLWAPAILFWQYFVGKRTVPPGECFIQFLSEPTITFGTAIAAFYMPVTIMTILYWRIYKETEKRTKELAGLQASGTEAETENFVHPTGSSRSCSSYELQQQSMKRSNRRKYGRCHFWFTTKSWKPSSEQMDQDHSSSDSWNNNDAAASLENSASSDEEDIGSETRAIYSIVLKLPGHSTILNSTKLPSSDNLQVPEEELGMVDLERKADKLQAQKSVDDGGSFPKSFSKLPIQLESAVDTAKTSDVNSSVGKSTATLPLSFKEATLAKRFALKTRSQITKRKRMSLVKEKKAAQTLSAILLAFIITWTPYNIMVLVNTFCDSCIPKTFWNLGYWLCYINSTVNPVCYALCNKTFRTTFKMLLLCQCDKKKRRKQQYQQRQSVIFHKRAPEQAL
Remember, pKi is on a log scale: it is -log10 of the molar concentration.

Problem: Checklist item: pKi tested on Muscarinic acetylcholine receptor M3 (Homo sapiens, UniProt P20309), entry `C=C(c1ccc(S(=O)(=O)c2ccc(OC)cc2)cc1)C1CCN(C2CCCCC2)CC1` , value?
Solution: 9.32

Problem: Tell me reported pKi for `C=C(c1ccc([S@@+]([O-])c2ccc(OC)cc2)cc1)C1CCN(C2CCCCC2)CC1` , tested with Muscarinic acetylcholine receptor M3 (Homo sapiens, UniProt P20309).
Solution: 9.89

Problem: Return pKi measured with Muscarinic acetylcholine receptor M3 (Homo sapiens, UniProt P20309) given this molecule: COc1ccc([S@@+]([O-])c2ccc(C(C#N)N3CCN(C4CCCCC4)CC3)cc2)cc1 (some centres undefined)
Solution: 7.53

Problem: Provide the documented pKi with Muscarinic acetylcholine receptor M3 (Homo sapiens, UniProt P20309) as the system for `COc1ccc([S@@+]([O-])c2ccc(C(=O)C3CCN(C4CCCCC4)CC3)cc2)cc1`
Solution: 7.56

Problem: Give the reported pKi for `COc1ccc([S@+]([O-])c2ccc(C(=O)C3CCN(C4CCCCC4)CC3)cc2)cc1` (system: Muscarinic acetylcholine receptor M3 (Homo sapiens, UniProt P20309)).
Solution: 7.70

Problem: Recall the recorded pKi for COc1ccc([S@@+]([O-])c2ccc(C(C#N)C3CCN(C4CCCCC4)CC3)cc2)cc1 (some centres undefined) with Muscarinic acetylcholine receptor M3 (Homo sapiens, UniProt P20309) and state it.
Solution: 7.43

Problem: # returns recorded pKi (system: Muscarinic acetylcholine receptor M3 (Homo sapiens, UniProt P20309)) for COc1ccc([S+]([O-])c2ccc(C(C)N3CCN(C4CCCCC4)CC3)cc2)cc1 (centres undefined)
Solution: 9.01

Problem: pKi of `C=C(c1ccc([S@+]([O-])c2ccc(OC)cc2)cc1)C1CCN(C2CCCCC2)CC1` on Muscarinic acetylcholine receptor M3 (Homo sapiens, UniProt P20309)?
Solution: 9.42

Problem: What measured pKi is associated with COc1ccc([S@+]([O-])c2ccc(C(C#N)C3CCN(C4CCCCC4)CC3)cc2)cc1 (some centres undefined) on Muscarinic acetylcholine receptor M3 (Homo sapiens, UniProt P20309)?
Solution: 7.23

----------
- System Name: UniProt:P08172
- Sequence (P08172 whole entry): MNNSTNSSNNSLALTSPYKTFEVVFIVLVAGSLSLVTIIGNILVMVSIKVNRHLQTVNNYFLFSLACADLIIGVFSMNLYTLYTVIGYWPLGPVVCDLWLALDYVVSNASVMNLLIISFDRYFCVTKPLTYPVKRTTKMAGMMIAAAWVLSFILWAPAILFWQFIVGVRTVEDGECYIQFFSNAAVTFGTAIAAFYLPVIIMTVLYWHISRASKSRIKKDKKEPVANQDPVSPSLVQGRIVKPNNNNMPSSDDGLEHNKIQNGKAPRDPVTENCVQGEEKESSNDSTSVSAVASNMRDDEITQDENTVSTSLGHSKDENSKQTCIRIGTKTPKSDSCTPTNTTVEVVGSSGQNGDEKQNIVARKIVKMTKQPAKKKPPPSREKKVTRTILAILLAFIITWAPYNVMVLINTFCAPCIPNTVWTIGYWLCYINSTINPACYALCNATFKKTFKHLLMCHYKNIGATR
Reported Metric: log10 Ki (log10 of the value in nM)
Kindly note that the scale is log10 and the underlying Ki is in nM.

Problem: Name the reported log10 Ki value associated with the compound `COc1ccc(S(=O)(=O)c2ccc(C(=O)C3CCN(C4CCCCC4)CC3)cc2)cc1`
Solution: 0.49

Problem: log10 Ki for COc1ccc([S@+]([O-])c2ccc(C(C#N)N3CCN(C4CCCCC4)CC3)cc2)cc1 (stereo partly drawn) ?
Solution: 1.24

Problem: // lookup log10 Ki for `C=C(c1ccc([S@@+]([O-])c2ccc(OC)cc2)cc1)C1CCN(C2CCCCC2)CC1`
Solution: -1.52

Problem: Given COc1ccc([S+]([O-])c2ccc(C(C)N3CCN(C4CCCCC4)CC3)cc2)cc1 (stereo not drawn) , state its recorded log10 Ki.
Solution: 0.00

Problem: Fill in: log10 Ki of `C=C(c1ccc(S(=O)(=O)c2ccc(OC)cc2)cc1)C1CCN(C2CCCCC2)CC1` is ___
Solution: -0.77

Problem: Can you share its log10 Ki? I mean this compound: `C=C(c1ccc([S@+]([O-])c2ccc(OC)cc2)cc1)C1CCN(C2CCCCC2)CC1`
Solution: -1.24

Problem: Fill in the blank: the reported log10 Ki of COc1ccc([S+]([O-])c2ccc(C(C)C3CCN(C4CCCCC4)CC3)cc2)cc1 (stereo not drawn) is ____.
Solution: -0.85

Problem: Dear colleague, I am looking for the recorded log10 Ki of the following compound: COc1ccc([S@@+]([O-])c2ccc(C(C#N)N3CCN(C4CCCCC4)CC3)cc2)cc1 (stereo partly drawn)
Solution: 0.44
